Test system: MDA-N
Experimental details: NCI tumour cell line growth inhibition, 48 h
Activity calls are given as the source filed them. Cut-off read from the data, not from the text of the source: active = GI50 up to about 1.1 µM and inactive = higher.
Please provide measured GI50 for the entries that follow.

# Compound, Measured quantity, Reported value
records = [
    ("O=C1CSC(c2c[nH]c3ccccc23)N1c1cccc(Cl)c1 (stereo unspecified)", "GI50", "36.9 µM (inactive)"),
    ("COc1cc(/N=N/N(C)C)c(C(C)c2c3cc(OC)c(OC)cc3cc[n+]2C)cc1OC (stereo unspecified)", "GI50", "34.8 µM (inactive)"),
    ("Nc1nnnn1CCO", "GI50", "> 100 µM (inactive)"),
]

Below are 6 compounds. Give each one its GI50.
1. C[C@@]1(OC(=O)c2cc([N+](=O)[O-])cc([N+](=O)[O-])c2)C[C@@H]2CCCC[C@@H]21
2. CN(C)CCOC(=O)c1ccc(N)cc1
3. CC1(C)N/C(=C\[N+](=O)[O-])C(C)(C)N1O
4. C/C=C(/C)C(=O)O[C@H]1C[C@@H]2[C@@H](O)c3occ(C)c3C[C@]2(C)[C@@H](C)C1
5. CC12Nc3ccccc3N1C(=O)c1ccccc12 (stereo unspecified)
6. Nc1nc(Cl)cc(NCC2(O)CCCC2)n1

1. > 100 µM (inactive)
2. 36.6 µM (inactive)
3. > 10 µM (inactive)
4. 18.7 µM (inactive)
5. > 100 µM (inactive)
6. > 100 µM (inactive)

Below are 2 compounds. Give each one its GI50.
1. COc1ccc2c(c1C)C(=O)C(O)(CC=C(C)C)O2 (stereo unspecified)
2. Cn1/c(=N\c2ccccc2[N+](=O)[O-])sc2ccccc21

1: > 100 µM (inactive); 2: > 100 µM (inactive)

The reported measurements were obtained from ChEMBL document CHEMBL1201862.
